# Measurement protocol: Dynamic solubility at 37 °C in H2O, SGF, FaSSIF and FeSSIF (HPLC concentration, pH of filtrate, XRPD of residual solid)
# Format: physicochemical
# Reported conditions: water, H2O, 24 h, feeding concentration 10 mg/mL, read-out: S: solubility
Structures can show the parent of a compound that is named as a salt.

{"Molecule": "Cc1cc(-c2cnn(-c3ccc(NS(=O)(=O)CCO)cc3N3CCC4(CC3)CC4)c2)nc(N2CCC(F)(F)CC2)n1 [crystal form B of the sulfate]", "solubility at 24 h [µg/mL]": 3}

====

# Measurement protocol: Dynamic solubility at 37 °C in H2O, SGF, FaSSIF and FeSSIF (HPLC concentration, pH of filtrate, XRPD of residual solid)
# Assay type: physicochemical
# Reported conditions: FeSSIF, 24 h, feeding concentration 10 mg/mL, read-out: S: solubility
Counter-ions that a name gives are not always drawn.
Experimental endpoint: solubility at 24 h (µg/mL)

{"Compound": "Cc1cc(-c2cnn(-c3ccc(NS(=O)(=O)CCO)cc3N3CCC4(CC3)CC4)c2)nc(N2CCC(F)(F)CC2)n1 [crystal form B of the sulfate]", "Experimental endpoint": "solubility at 24 h", "Unit label": "µg/mL", "Readout value": 79}

====

# Measurement protocol: physchem
# Reported conditions: fassif
Structures can show the parent of a compound that is named as a salt.
Experimental endpoint: solubility at 24 h (µg/mL)

{"Compound": "Cc1cc(-c2cnn(-c3ccc(NS(=O)(=O)CCO)cc3N3CCC4(CC3)CC4)c2)nc(N2CCC(F)(F)CC2)n1 [crystal form B of the sulfate]", "Readout value": 33.8}
